- Tested on: IL-8
- assayOverview: In vitro chemotaxis, inhibition v IL-8
- Assay type: cell-based, human
- Design: concentration or dose not given beside the values
Bridge positions count the residues as written; N and C are the ends. Square brackets hold non-standard residues; d marks the D form. Peptide text beside a SMILES is read from it. * marks the point of attachment. Ac6c = NC1(C(=O)O)CCCCC1; Octanoyl = CCCCCCCC(=O)*
Criterion: v IL-8 inhibition (%) meeting or surpassing 90%. Met: true (1). Not met: false (0).

Query :: Given the entry CCCCCCCC(=O)NCCCC[C@H](NC(=O)[C@H](CC(=O)O)NC(=O)[C@H]1CSSC[C@@H](N)C(=O)N[C@H](CCC(N)=O)C(=O)N[C@H]([C@H](C)CC)C(=O)N[C@H](Cc2c[nH]c3ccccc23)C(=O)N[C@H](CCCCN)C(=O)N[C@H](CCC(N)=O)C(=O)N[C@H](CCCCN)C(=O)N2CCC[C@@H]2C(=O)N[C@H](CC(=O)O)C(=O)N[C@H](CC(C)C)C(=O)N1)C(=O)O [Example 148] (H-[dC][dQ][dI][dW][dK][dQ][dK][dP][dD][dL][dC]DK(Octanoyl)-OH; disulfide 1-11) , answer whether its v IL-8 inhibition (%) meets or surpasses 90%.
Result :: true (1)

Query :: Okay, and CC[C@H](C)[C@@H]1NC(=O)[C@H](Cc2c[nH]c3ccccc23)NC(=O)[C@H](CCCCN)NC(=O)[C@H](CCC(N)=O)NC(=O)[C@@H](NC(=O)[C@@H](N)CCCCN)CSSC[C@@H](C(N)=O)NC(=O)[C@H](CCC(N)=O)NC1=O [Example 47, Lys-c(Cys-Gln-Lys-Trp-Ile-Gln-Cys)-NH2] (H-KCQKWIQC-NH2; disulfide 2-8) ?
Result :: true (1)

Query :: Okay, and CCCCCCCC(=O)NCCCC[C@@H]1NC(=O)[C@@H](CC(=O)O)NC(=O)[C@H]2CCCN2C(=O)[C@@H](CCCCN)NC(=O)[C@@H](CCC(N)=O)NC(=O)[C@@H](CCCCN)NC(=O)[C@@H](Cc2c[nH]c3ccccc23)NC(=O)[C@@H]([C@H](C)CC)NC(=O)[C@@H](CCC(N)=O)NC(=O)[C@H](N)CSSC[C@H](C(=O)O)NC(=O)[C@@H](CC(C)C)NC1=O [Example 154] (H-[dC][dQ][dI][dW][dK][dQ][dK][dP][dD]K(Octanoyl)[dL][dC]-OH; disulfide 1-12) ?
Result :: false (0)

Query :: Okay, and CC(=O)N[C@H]1CSSC[C@@H](C(N)=O)NC(=O)[C@H](CCC(N)=O)NC(=O)[C@H](Cc2c[nH]c3ccccc23)NC(=O)[C@H](CCCCN)NC(=O)[C@H](CCC(N)=O)NC(=O)[C@H](CCCCN)NC(=O)[C@@H]2CCCN2C(=O)[C@H](CC(=O)O)NC(=O)C2(CCCCC2)NC1=O [Example 156] (Ac-C[Ac6c]DPKQKWQC-NH2; disulfide 1-10) ?
Result :: false (0)

Query :: Okay, and CC[C@H](C)[C@@H]1NC(=O)[C@H](Cc2c[nH]c3ccccc23)NC(=O)[C@H](CCCCN)NC(=O)[C@@H](NC(=O)[C@H](CCC(N)=O)NC(=O)[C@H](CCCCN)NC(=O)[C@@H]2CCCN2C(=O)[C@H](CC(=O)O)NC(=O)[C@H](CC(C)C)NC(C)=O)CSSC[C@@H](C(N)=O)NC(=O)[C@H](CCC(N)=O)NC1=O [Example 23] (Ac-LDPKQCKWIQC-NH2; disulfide 6-11) ?
Result :: false (0)

Further cases:
Query :: Given the entry CCCCCCCC(=O)NCCCC[C@H](NC(=O)[C@H]1CSSC[C@@H](N)C(=O)N[C@H](CCC(N)=O)C(=O)N[C@H]([C@H](C)CC)C(=O)N[C@H](Cc2c[nH]c3ccccc23)C(=O)N[C@H](CCCCN)C(=O)N[C@H](CCC(N)=O)C(=O)N[C@H](CCCCN)C(=O)N2CCC[C@@H]2C(=O)N[C@H](CC(=O)O)C(=O)N[C@H](CC(C)C)C(=O)N1)C(=O)O [Example 149] (H-[dC][dQ][dI][dW][dK][dQ][dK][dP][dD][dL][dC]K(Octanoyl)-OH; disulfide 1-11) , answer whether its v IL-8 inhibition (%) meets or surpasses 90%.
Result :: true (1)

Query :: Okay, and CC[C@H](C)[C@@H]1NC(=O)[C@H](Cc2c[nH]c3ccccc23)NC(=O)[C@H](CCCCN)NC(=O)[C@H](CCC(N)=O)NC(=O)[C@H](CCCCN)NC(=O)[C@@H](NC(=O)[C@@H]2CCCN2C(=O)[C@H](CC(=O)O)NC(=O)[C@@H](N)CC(C)C)CSSC[C@@H](C(N)=O)NC(=O)[C@H](CCC(N)=O)NC1=O [Example 38] (H-LDPCKQKWIQC-NH2; disulfide 4-11) ?
Result :: false (0)

Query :: Okay, and CC(C)[C@H](NC(=O)[C@H](Cc1c[nH]c2ccccc12)NC(=O)OC(C)(C)C)C(=O)NC1CCC(=O)NC1=O (stereo partly drawn) [Example 164, BOC-Trp-Val-α-aminoglutaramide] ?
Result :: true (1)

Query :: Okay, and CC[C@H](C)[C@@H]1NC(=O)[C@H](Cc2c[nH]c3ccccc23)NC(=O)[C@H](CCCCN)NC(=O)[C@H](CCC(N)=O)NC(=O)[C@H](CCCCN)NC(=O)[C@@H](NC(=O)[C@@H]2CCCN2)CSSC[C@@H](C(N)=O)NC(=O)[C@H](CCC(N)=O)NC1=O [Example 43] (H-PCKQKWIQC-NH2; disulfide 2-9) ?
Result :: false (0)

Query :: Okay, and CC[C@H](C)[C@@H]1NC(=O)[C@H](Cc2c[nH]c3ccccc23)NC(=O)[C@H](CCCCN)NC(=O)[C@H](CCC(N)=O)NC(=O)[C@H](CCCCN)NC(=O)[C@@H]2CCCN2C(=O)[C@H](CC(=O)O)NC(=O)[C@@H](NC(=O)[C@H](CC(C)C)NC(C)=O)CSSC[C@@H](C(N)=O)NC(=O)[C@H](CCC(N)=O)NC1=O [Example 19] (Ac-LCDPKQKWIQC-NH2; disulfide 2-11) ?
Result :: true (1)
